Cited source: PubChem BioAssay AID1745844

# System: rodent lifetime carcinogenesis bioassay, tumor incidence TD50
# TEST: carcinogenic potency in animals, long-term in vivo studies, CPDB compilation (AID 1745844)
# TEST_SETTINGS: rat; strain Fischer 344; males; in drinking water; site: skin; lesion: basal-cell adenoma + basal-cell carcinoma; dosed 104 weeks; study length 104 weeks
MEASURE: TD50

[ask] What measured TD50 goes with Cc1ccc(S(=O)(=O)Oc2ccc(N=Nc3ccc(-c4ccc(N=Nc5c(O)ccc6cc(S(=O)(=O)O)cc(S(=O)(=O)O)c56)c(C)c4)cc3C)cc2)cc1 ?
[reply] 3.3 mg/kg/day

----------
# Test system: rodent lifetime carcinogenesis bioassay, tumor incidence TD50
# TEST: carcinogenic potency in animals, long-term in vivo studies, CPDB compilation (AID 1745844)
# TEST_SETTINGS: mouse; strain ddNi; females; in feed; site: liver; lesion: liver-cell carcinoma; dosed 160 weeks; study length 160 weeks
MEASURE: TD50

[ask] Which value of TD50 has been reported for Cc1cc(O)c2c(c1O)C(=O)C13C(=C2O)C(=O)C2C(O)C1C1C(O)C3C(=O)C3=C(O)c4c(O)cc(C)c(O)c4C(=O)C321 (stereo unspecified) in the records?
[reply] 248 mg/kg/day
